Below, each of the molecules is paired with its reported pIC50 value.
# System: SW620 tumor organoids
# Assay name: Tumor organoid cytotoxicity (CellTiter-Glo 3D)
# Measurement context: Homo sapiens, SW-620, read-out: IC50 of cytotoxicity in SW620 cells
pIC50: −log10 of the molar value.

Here is how some molecules turned out for pIC50.
>  <Compound structure>
Cc1cc(Nc2ccc(NC(=O)Cc3cc(Br)cs3)cc2)nc(N2CCCC2)n1

>  <Result>
> 5.00

$$$$
>  <Compound structure>
Cc1cc(Nc2ccc(NC(=O)Cc3c(C)[nH]c4ccccc34)cc2)nc(N2CCCC2)n1

>  <Result>
> 5.00

$$$$

Problem: Record request: pIC50 value, item Cc1cc(Nc2ccc(NC(=O)Cc3c[nH]c4cc(Cl)ccc34)cc2)nc(N2CCCC2)n1
Result: > 5.00

----------
# Measurement target: cat-CHD1L ATPase (Homo sapiens)
# Construct: inferred from Ni-NTA / imidazole purification; made in house; host or cells: E. coli Rosetta 2 (DE3) pLysS; constructs were a gift from Helena Berglund, Karolinska Institute
# Sequence (Q86WJ1 16-611 limits assumed): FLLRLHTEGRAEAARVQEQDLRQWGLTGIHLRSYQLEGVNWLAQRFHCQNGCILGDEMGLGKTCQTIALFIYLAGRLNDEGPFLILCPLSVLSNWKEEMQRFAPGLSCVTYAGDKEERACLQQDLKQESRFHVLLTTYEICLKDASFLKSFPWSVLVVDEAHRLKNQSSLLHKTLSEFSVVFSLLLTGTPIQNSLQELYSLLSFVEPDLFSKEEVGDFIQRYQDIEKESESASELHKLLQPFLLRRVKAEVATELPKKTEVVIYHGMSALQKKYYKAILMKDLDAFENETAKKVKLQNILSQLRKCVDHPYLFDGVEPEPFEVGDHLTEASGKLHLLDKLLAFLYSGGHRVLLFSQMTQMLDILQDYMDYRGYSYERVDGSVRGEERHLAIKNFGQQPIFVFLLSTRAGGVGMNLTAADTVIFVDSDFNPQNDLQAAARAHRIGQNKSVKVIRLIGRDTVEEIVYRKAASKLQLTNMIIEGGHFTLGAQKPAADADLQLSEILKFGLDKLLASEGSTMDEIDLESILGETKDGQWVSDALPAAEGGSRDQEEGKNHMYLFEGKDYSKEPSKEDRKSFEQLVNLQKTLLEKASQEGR
# Assay name: CHD1L ATPase assay with recombinant catalytic domain (cat-CHD1L)
# Type: biochemical
# Measurement context: Table 6; read-out: cat-CHD1L inhibition IC50
# Method: All reactions were carried out using low volume non-binding surface 384-well plates (Corning Inc., Corning N.Y.). cat-CHD1L or fl-CHD1L (100 nM) and 200 nM c-Myc DNA or mononucelosome (Active Motif, Carlsbad, Calif.) were added to a buffer containing 50 mM Tris pH 7.5, 50 mM NaCl, 1 mM DTT, 5% glycerol, and the reaction was initiated by the addition of 10 μM ATP (New England Biolabs, Ipswich, Mass.) to a total volume of 10 μL and incubated at 37° C. for 1 h. […]
Here, each record is paired with measured IC50 data.
The reply should be a number in nM, with the unit left off.

Take a look at these entries with their results.
>  <Molecule>
Cc1cc(N2CCN(C)CC2)nc(NCc2ccc(NC(=O)Cc3cc(Br)cs3)cc2)n1 [Compound 6.45]

>  <Measurement target>
cat-CHD1L ATPase (Homo sapiens)

>  <Display unit>
nM

>  <Quantitative result>
1400

$$$$
>  <Molecule>
Cc1cc(Nc2ccc(NC(=O)Cc3cc(Br)cs3)cc2)nc(N2CCNCC2)n1 [Compound 6.40]

>  <Measurement target>
cat-CHD1L ATPase (Homo sapiens)

>  <Display unit>
nM

>  <Quantitative result>
11400

$$$$
>  <Molecule>
COC(=O)C1CCCN1c1nc(C)cc(Nc2ccc(NC(=O)Cc3cccs3)cc2)n1 (centres unmarked) [Compound 6.34]

>  <Measurement target>
cat-CHD1L ATPase (Homo sapiens)

>  <Display unit>
nM

>  <Quantitative result>
3000

$$$$
>  <Molecule>
Cc1cc(Nc2ccc(NC(=O)Cc3cc(Br)cs3)cc2)nc(N2CCN(C)CC2)n1 [Compound 6.48]

>  <Measurement target>
cat-CHD1L ATPase (Homo sapiens)

>  <Display unit>
nM

>  <Quantitative result>
4500

$$$$
>  <Molecule>
Cc1cc(NCc2ccc(NC(=O)Cc3cc(Br)cs3)cc2)n2nc(N)nc2n1 [Compound 6.54]

>  <Measurement target>
cat-CHD1L ATPase (Homo sapiens)

>  <Display unit>
nM

>  <Quantitative result>
3500

$$$$

Problem: IC50 of Cc1cc(NCc2ccc(NC(=O)Cc3cc(Br)cs3)cc2)nc(N2CCCCC2)n1 [Compound 6.46] on cat-CHD1L ATPase (Homo sapiens)?
Result: 700

Problem: Param item: Cc1cc(NCc2ccc(NC(=O)Cc3cc(Br)cs3)cc2)n2nc(N3CCCC3)nc2n1 [Compound 6.56]
Result: 2500

Problem: Also Cc1cc(Nc2ccc(NC(=O)Cc3cc(Br)cs3)cc2)nc(N2CCCCC2)n1 [Compound 6.49] , if possible.
Result: 2300

Problem: Let us now turn to Cc1cc(Nc2ccc(NC(=O)Cc3cccnc3)cc2)nc(N2CCCC2)n1 [Compound 6.43]
Result: 10300

Problem: Here is the next molecule: Cc1cc(Nc2ccc(NC(=O)Cc3cc(Br)cs3)cc2)n2nc(N3CCCC3)nc2n1 [Compound 6.55]
Result: 18700

Problem: What do you have for Cc1cc(NCc2ccc(NC(=O)Cc3cc(Br)cs3)cc2)nc(N2CCNCC2)n1 [Compound 6.57] ?
Result: 2400

Problem: Next entry: Cc1cc(N2CCCC2)nc(NCc2ccc(NC(=O)Cc3cc(Br)cs3)cc2)n1 [Compound 6.41]
Result: 500

Problem: Now the same for COC(=O)C1CCCN1c1nc(C)cc(Nc2ccc(NC(=O)Cc3cc(Br)cs3)cc2)n1 (centres unmarked) [Compound 6.35]
Result: 1800

Problem: Would you kindly repeat that for Cc1cc(Nc2ccc(NC(=O)Cn3ccnc3)cc2)nc(N2CCCCC2)n1 [Compound 6.51] ?
Result: 6000

Problem: How about Cc1cc(NCc2ccc(NC(=O)Cc3cc(Br)cs3)cc2)nc(N2CCN(C)CC2)n1 [Compound 6.44] ?
Result: 1200

----------
# Assay name: Pharmacokinetics in CD-1 mice
# Measurement context: female, CD-1, mouse, plasma, ip, 50 mg/kg
Reported endpoint: AUC(0-t)
Write the figure, then the unit, nothing else.

Problem: Need AUC(0-t), item Cc1cc(Nc2ccc(NC(=O)Cc3cccs3)cc2)nc(N2CCCC2)n1
Result: 80300 ng·h/mL

----------
# System: SW620 tumor organoids
# Assay name: Tumor organoid cytotoxicity (CellTiter-Glo 3D)
# Measurement context: read-out: Tumor Organoid Cytotoxicity IC50 (μM) SW620; single agent, Table 4A; updated experimental, rounded to one decimal
Reported endpoint: IC50 (µM)
Write the value in µM as a bare number.

Problem: Given the entry COc1ccc2[nH]cc(CC(=O)Nc3ccc(Nc4cc(C)nc(N5CCCC5)n4)cc3)c2c1 [Compound 6.22] , what IC50 was observed with SW620 tumor organoids?
Result: 12.6

----------
This listing pairs molecules with measured pIC50.
# Measurement target: cat-CHD1L ATPase (Homo sapiens)
# Construct: inferred from Ni-NTA / imidazole purification; made in house; host or cells: E. coli Rosetta 2 (DE3) pLysS; constructs were a gift from Helena Berglund, Karolinska Institute
# Assay name: CHD1L ATPase assay with recombinant catalytic domain (cat-CHD1L)
# Format: biochemical
# Measurement context: Table 6; read-out: cat-CHD1L inhibition IC50
# Protocol: All reactions were carried out using low volume non-binding surface 384-well plates (Corning Inc., Corning N.Y.). cat-CHD1L or fl-CHD1L (100 nM) and 200 nM c-Myc DNA or mononucelosome (Active Motif, Carlsbad, Calif.) were added to a buffer containing 50 mM Tris pH 7.5, 50 mM NaCl, 1 mM DTT, 5% glycerol, and the reaction was initiated by the addition of 10 μM ATP (New England Biolabs, Ipswich, Mass.) to a total volume of 10 μL and incubated at 37° C. for 1 h. […]
Recall that pIC50 is obtained by taking minus log10 of the concentration measured in molar.

Below are worked cases with known answers.
>  <Compound structure>
O=C(Cc1cc(Br)cs1)Nc1ccc(CNc2cc(C(F)(F)F)nc(N3CCCC3)n2)cc1

>  <pIC50>
5.85

$$$$
>  <Compound structure>
Cc1cc(N2CCCCC2)nc(NCc2ccc(NC(=O)Cc3cc(Br)cs3)cc2)n1

>  <pIC50>
6.10

$$$$
>  <Compound structure>
O=C(Cc1cc(Br)cs1)Nc1ccc(Nc2cc(C(F)(F)F)nc(N3CCCC3)n2)cc1

>  <pIC50>
6.00

$$$$

Problem: Report pIC50 for Cc1cc(NCc2ccc(NC(=O)Cc3cc(Br)cs3)cc2)nc(N2CCCC2)n1 please.
Result: 6.52

Problem: // same read-out, input: Cc1cc(Nc2ccc(NC(=O)Cc3ccccn3)cc2)nc(N2CCCC2)n1
Result: 4.75
